# Assayed System: TNKS1 (Homo sapiens, UniProt O95271)
# Sequence (O95271 whole entry): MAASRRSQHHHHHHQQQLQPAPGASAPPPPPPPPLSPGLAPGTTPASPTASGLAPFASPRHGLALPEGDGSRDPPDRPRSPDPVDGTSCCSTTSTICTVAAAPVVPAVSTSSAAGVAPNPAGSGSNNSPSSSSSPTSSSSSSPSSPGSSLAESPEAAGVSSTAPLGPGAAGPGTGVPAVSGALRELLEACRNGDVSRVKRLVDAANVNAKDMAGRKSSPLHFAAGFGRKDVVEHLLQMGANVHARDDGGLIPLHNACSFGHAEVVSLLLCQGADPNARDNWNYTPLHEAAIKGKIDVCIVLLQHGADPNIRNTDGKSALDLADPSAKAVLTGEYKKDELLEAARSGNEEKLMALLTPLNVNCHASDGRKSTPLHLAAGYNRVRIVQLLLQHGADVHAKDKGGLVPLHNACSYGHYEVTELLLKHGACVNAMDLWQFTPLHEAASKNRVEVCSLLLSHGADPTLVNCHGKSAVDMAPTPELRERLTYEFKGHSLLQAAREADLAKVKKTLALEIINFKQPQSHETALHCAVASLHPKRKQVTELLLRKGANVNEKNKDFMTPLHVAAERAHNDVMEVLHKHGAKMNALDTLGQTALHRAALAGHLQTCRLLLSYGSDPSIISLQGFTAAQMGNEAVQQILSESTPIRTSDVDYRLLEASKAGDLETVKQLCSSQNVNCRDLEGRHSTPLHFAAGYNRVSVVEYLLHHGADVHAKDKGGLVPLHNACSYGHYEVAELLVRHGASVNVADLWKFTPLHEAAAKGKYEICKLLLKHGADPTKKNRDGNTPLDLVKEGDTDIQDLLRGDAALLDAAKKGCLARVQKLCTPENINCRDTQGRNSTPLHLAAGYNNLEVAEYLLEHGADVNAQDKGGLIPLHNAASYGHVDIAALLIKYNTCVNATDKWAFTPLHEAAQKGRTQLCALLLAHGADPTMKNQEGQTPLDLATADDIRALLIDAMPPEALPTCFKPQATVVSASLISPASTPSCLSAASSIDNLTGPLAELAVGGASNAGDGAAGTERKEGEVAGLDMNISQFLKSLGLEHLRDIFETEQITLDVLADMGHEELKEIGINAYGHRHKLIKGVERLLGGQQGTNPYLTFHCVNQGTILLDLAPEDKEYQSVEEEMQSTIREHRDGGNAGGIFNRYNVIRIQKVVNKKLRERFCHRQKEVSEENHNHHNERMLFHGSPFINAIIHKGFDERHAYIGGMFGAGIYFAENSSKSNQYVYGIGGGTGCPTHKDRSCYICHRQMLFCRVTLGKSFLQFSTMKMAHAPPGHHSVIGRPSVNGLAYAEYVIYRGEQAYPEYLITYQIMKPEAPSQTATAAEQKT
# Procedure Details: Modified TNKS1 Assay 2 (auto-parsylation, [3H]-NAD+ SPA)
# Type: biochemical
# Experimental Parameters: 6 nM TNKS1, 96 well
Observed Property: log10 of IC50 (log10 of the value in nM)
Quick note: numbers are log10 of IC50, with nM as the unit.

Cc1nc(C(=O)Nc2ccc(NC(=O)c3ccc(F)cc3Cl)cc2)c(C(=O)NCCN(C)C)[nH]1 1.30

log10 of IC50 on TNKS1 (Homo sapiens, UniProt O95271) for `CC(C)NC(=O)c1nc[nH]c1C(=O)Nc1ccc(NC(=O)c2ccc(F)cc2Cl)cc1` is 2.46

Simply: `CNC(=O)c1nc[nH]c1C(=O)Nc1ccc(NC(=O)c2cc(Br)ccc2Cl)cc1` , TNKS1 (Homo sapiens, UniProt O95271), log10 of IC50 = 2.62

Value (log10 of IC50, TNKS1 (Homo sapiens, UniProt O95271)) for record `C[C@@H]1CCCN(CCNC(=O)c2[nH]cnc2C(=O)Nc2ccc(NC(=O)c3ccc(F)cc3Cl)cc2)C1` = 0.70

----------
# Assayed System: UniProt O95271
# Procedure Details: TNKS1 Assay 1 (TNKS1 Histone Ribosylation Assay Kit, biotin-labeled NAD+)
# Format: biochemical
# Experimental Parameters: chemiluminescent readout, 384 well, first table
# Procedure: The potency of the compounds according to the invention was assessed by applying an in vitro inhibition assay. The TNKS1 catalyzed NAD^+-dependent ribosylation of a suitable protein substrate was detected using a commercially available biotin/streptavidin binding based assay format [TNKS1 Histone Ribosylation Assay Kit (Biotin-labeled NAD+), Catalog #80579; BPS Bioscience, San Diego, USA]. […] The intensity of the readout signal is proportional to the incorporated NAD^+. […]
pIC50 reference
Lab note: report pIC50 as minus log10 of the concentration in molar units, number only.

Compound	Observed Property	Recorded Value
CC(NC(=O)c1ncoc1C(=O)Nc1ccc(NC(=O)c2ccc(F)cc2Cl)cc1)c1ccccc1 (centres unmarked) [Example 8]	pIC50	5.64

For reference, reported pIC50 for CN(C)C(=O)c1nc[nH]c1C(=O)Nc1ccc(NC(=O)c2ccc(F)cc2Cl)cc1 [Example 24] stands at 6.55

get_value(item= CNC(=O)c1nc[nH]c1C(=O)Nc1ccc(NC(=O)c2ccc(Cl)cc2Cl)cc1 [Example 9] , readout=pIC50) returns 6.96

Briefly, pIC50 measured for CNC(=O)c1nc[nH]c1C(=O)Nc1ccc(NC(=O)c2ccc(F)cc2Cl)c(C)c1 [Example 5] : 6.49

Looking up CNC(=O)c1nc[nH]c1C(=O)Nc1ccc(NC(=O)c2ccncc2Cl)cc1 [Example 6] , I found its pIC50 recorded as 7.30

Looking up CNC(=O)c1nc[nH]c1C(=O)Nc1ccc(NC(=O)c2c(C)cc(F)cc2C)cc1 [Example 23] , I found its pIC50 recorded as 6.11

Item: CC(C)NC(=O)c1nc[nH]c1C(=O)Nc1ccc(NC(=O)c2ccc(F)cc2Cl)cc1 [Example 10] | pIC50: 6.51

Value of measured pIC50 for the entry CNC(=O)c1nc[nH]c1C(=O)Nc1ccc(NC(=O)c2ccc(OCCN3CCN(C)CC3)cc2Cl)cc1 [Example 28] : 7.15

----------
# Assayed System: TNKS2 (Homo sapiens, UniProt Q9H2K2)
# Sequence (Q9H2K2 1-1166): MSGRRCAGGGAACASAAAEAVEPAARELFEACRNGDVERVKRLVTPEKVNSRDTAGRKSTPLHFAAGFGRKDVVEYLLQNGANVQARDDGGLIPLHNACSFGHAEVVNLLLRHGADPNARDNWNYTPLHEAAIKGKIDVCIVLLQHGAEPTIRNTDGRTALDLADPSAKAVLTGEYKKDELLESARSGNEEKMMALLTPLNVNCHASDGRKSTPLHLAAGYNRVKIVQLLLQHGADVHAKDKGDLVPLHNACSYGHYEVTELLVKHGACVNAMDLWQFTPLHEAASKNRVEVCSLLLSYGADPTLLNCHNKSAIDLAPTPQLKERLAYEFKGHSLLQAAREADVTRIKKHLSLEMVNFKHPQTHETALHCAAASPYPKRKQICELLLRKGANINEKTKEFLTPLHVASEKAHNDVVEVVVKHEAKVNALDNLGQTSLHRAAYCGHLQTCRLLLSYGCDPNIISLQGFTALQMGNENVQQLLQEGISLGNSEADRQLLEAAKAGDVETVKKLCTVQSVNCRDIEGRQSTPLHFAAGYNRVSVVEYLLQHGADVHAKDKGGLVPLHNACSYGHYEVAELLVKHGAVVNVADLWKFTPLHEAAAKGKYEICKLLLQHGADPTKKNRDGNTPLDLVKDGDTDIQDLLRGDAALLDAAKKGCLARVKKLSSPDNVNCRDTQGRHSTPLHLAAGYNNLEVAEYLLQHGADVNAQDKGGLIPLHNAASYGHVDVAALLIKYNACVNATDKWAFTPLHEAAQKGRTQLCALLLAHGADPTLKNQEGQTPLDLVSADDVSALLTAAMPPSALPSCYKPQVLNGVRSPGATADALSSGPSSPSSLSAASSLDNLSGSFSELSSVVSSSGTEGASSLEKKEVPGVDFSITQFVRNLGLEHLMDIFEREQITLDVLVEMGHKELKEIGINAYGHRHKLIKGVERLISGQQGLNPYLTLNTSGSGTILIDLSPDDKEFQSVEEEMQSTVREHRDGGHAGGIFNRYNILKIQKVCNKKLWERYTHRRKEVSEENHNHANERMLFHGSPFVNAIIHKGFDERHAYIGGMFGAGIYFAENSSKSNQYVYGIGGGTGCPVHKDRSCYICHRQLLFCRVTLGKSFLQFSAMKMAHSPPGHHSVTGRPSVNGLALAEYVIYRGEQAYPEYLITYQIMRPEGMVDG
# Procedure Details: TNKS2 Assay 1 (TNKS2 Histone Ribosylation Assay Kit, biotin-labeled NAD+)
# Assay type: biochemical
# Experimental Parameters: chemiluminescent readout, 384 well, Table 2
Please use Criterion met for IC50 under 90 nM and Criterion not met for everything else, ties included.

Compound	Assigned Class
O=C(Nc1ccc(NC(=O)c2[nH]cnc2C(=O)NCc2ccccc2)cc1)c1ccc(F)cc1Cl	Criterion not met
CNC(=O)c1nc[nH]c1C(=O)Nc1ccc(NC(=O)c2ccc(OCCN(C)C)cc2Cl)cc1	Criterion met
CNC(=O)c1nc[nH]c1C(=O)Nc1ccc(NC(=O)c2ccc(N3CCCC3)cc2F)cc1	Criterion not met

Request: Below 90 nM on IC50? Entry `CNC(=O)c1nc[nH]c1C(=O)Nc1ccc(NC(=O)c2ccccc2C)cc1`
Result: Criterion not met

Request: Does this compound meet the criterion IC50 < 90 nM? `CC(C)NC(=O)c1ncoc1C(=O)Nc1ccc(NC(=O)c2ccc(F)cc2Cl)cc1`
Result: Criterion not met

Request: Just wondering, is IC50 of `CNC(=O)c1nc[nH]c1C(=O)Nc1ccc(NC(=O)c2ccc(F)cc2Cl)cc1` below 90 nM?
Result: Criterion met

Request: Please determine if `CNC(=O)c1nc[nH]c1C(=O)Nc1ccc(NC(=O)c2ccc(F)cc2)cc1` is below 90 nM in terms of IC50.
Result: Criterion not met

Request: Find out if reported IC50 for `COC(=O)c1ncoc1C(=O)Nc1ccc(NC(=O)c2ccc(F)cc2Cl)cc1` is less than 90 nM
Result: Criterion not met

Request: Answer whether the compound `CNC(=O)c1nc[nH]c1C(=O)Nc1ccc(NC(=O)c2c(C)cc(F)cc2C)cc1` has IC50 strictly less than 90 nM
Result: Criterion not met

Request: Problem: For the compound `CNC(=O)c1nc[nH]c1C(=O)Nc1ccc(NC(=O)c2ccc(F)cc2Cl)c(C)c1` , is IC50 under 90 nM?
Result: Criterion not met

----------
# Assayed System: TNKS2 (Homo sapiens, UniProt Q9H2K2)
# Procedure Details: Modified TNKS2 Assay 3 (BPS kit #80578, biotin-NAD+, 96 well)
# Type: biochemical
# Experimental Parameters: human TNKS2, BPS kit #80578, 96 well
pIC50: −log10 of the molar value. Counter-ions that a name gives are not always drawn.
Tick Yes if pIC50 is 8 or greater. Tick No if pIC50 is less than 8.

Here are 10 molecules together with their reported answers.
Molecule	Assigned Class
O=C(Nc1ccc(NC(=O)c2nc[nH]c2C(=O)NCCCCN2CCCCC2)cc1)c1ccc(F)cc1Cl [Example 196]	No
CC(CNC(=O)c1[nH]cnc1C(=O)Nc1ccc(NC(=O)c2ccc(F)cc2Cl)cc1)N1CCN(C)CC1 (stereo not drawn) [Example 185]	No
CC(CN1CCOCC1)NC(=O)c1[nH]cnc1C(=O)Nc1ccc(NC(=O)c2ccc(F)cc2Cl)cc1 (stereo not drawn) [Example 268]	Yes
CC(C)(N)CNC(=O)c1[nH]cnc1C(=O)Nc1ccc(NC(=O)c2ccc(F)cc2Cl)cc1 [Example 280]	No
O=C(Nc1ccc(NC(=O)c2[nH]cnc2C(=O)NCCN2CCCCC2)cc1)c1cc(OC(F)(F)F)ccc1Br [Example 63]	Yes
CC1CCCN(CCNC(=O)c2[nH]cnc2C(=O)Nc2ccc(NC(=O)c3ccccc3Cl)cc2)C1 (stereo not drawn) [Example 210]	Yes
CNC(=O)c1nc[nH]c1C(=O)Nc1ccc(NC(=O)c2ccccc2Br)cc1 [Example 37]	No
CC(CN1CCOCC1)NC(=O)c1[nH]cnc1C(=O)Nc1ccc(NC(=O)c2ccc(F)cc2)cc1 (single isomer, unassigned; enantiomer 1) [Example 295]	No
O=C(Nc1ccc(NC(=O)c2nc[nH]c2C(=O)NCCN2CCCC(O)C2)cc1)c1ccc(F)cc1Cl (stereo not drawn) [Example 229]	Yes
O=C(Nc1ccc(NC(=O)c2nc[nH]c2C(=O)NC2CCOCC2)cc1)c1ccc(F)cc1Cl [Example 234]	No

Request: Is the recorded value of pIC50 equal to or greater than 8 for this molecule? O=C(Nc1ccc(NC(=O)c2nc[nH]c2C(=O)NCCN2CCC2)cc1)c1ccc(F)cc1Cl [Example 198]
Result: Yes

Request: Check this molecule for pIC50 at or above 8: CC1CCN(CCNC(=O)c2nc[nH]c2C(=O)Nc2ccc(NC(=O)c3ccc(F)cc3Cl)cc2)CC1 [Example 126]
Result: Yes

Request: hey, is pIC50 for this one >= 8? CNC(=O)c1nc[nH]c1C(=O)Nc1ccc(NC(=O)c2cc(F)c(F)cc2Cl)cc1 [Example 242]
Result: No

Request: Record O=C(NCCN1CCCCC1)c1nc[nH]c1C(=O)Nc1ccc(NC(=O)c2c(F)cc(F)cc2Cl)cc1 [Example 119] ; criterion: pIC50 no lower than 8. Met?
Result: Yes

Request: Confirm if pIC50 reported for the molecule O=C(Nc1ccc(NC(=O)c2nc[nH]c2C(=O)NCCN2CCC[C@@H](F)C2)cc1)c1ccc(F)cc1Cl [Example 277] is 8 or above.
Result: No

Request: Hi, just wondering whether CC(C)(O)CNC(=O)c1[nH]cnc1C(=O)Nc1ccc(NC(=O)c2ccc(F)cc2Cl)cc1 [Example 223] shows pIC50 of 8 or higher.
Result: No

Request: Is pIC50 for CNC(=O)c1nc[nH]c1C(=O)Nc1ccc(NC(=O)c2ccc(F)cc2Cl)c(OC)c1 [Example 95] at or above 8?
Result: No

Request: Threshold query (pIC50 >= 8) on C[C@H]1CCCCN1CCNC(=O)c1[nH]cnc1C(=O)Nc1ccc(NC(=O)c2ccc(F)cc2Cl)cc1 [Example 266, formic acid salt]
Result: Yes

Request: Is pIC50 for CNC(=O)c1nc[nH]c1C(=O)Nc1ccc(NC(=O)c2cccc(C)c2Cl)cc1 [Example 346] at or above 8?
Result: No

Request: Form field: pIC50 at least 8? Entry: O=C(Nc1ccc(NC(=O)c2nc[nH]c2C(=O)NCCN2CCCC2)cc1)c1ccccc1Cl [Example 168]
Result: Yes

Request: Identify whether the reported pIC50 of the following molecule is 8 or greater: O=C(Nc1ccc(NC(=O)c2nc[nH]c2C(=O)NCCN2CCCC(F)C2)cc1)c1ccc(F)cc1Cl (stereo not drawn) [Example 226]
Result: Yes

Request: Is the recorded value of pIC50 equal to or greater than 8 for this molecule? CNC(=O)c1nc[nH]c1C(=O)Nc1ccc(NC(=O)c2ccc(F)cc2I)cc1 [Example 61]
Result: Yes
